# system: Cellular tumor antigen p53 (Homo sapiens)
# experiment: Primary qHTS for small molecule compounds that upregulate eGFP-tagged delta133p53alpha (in N-terminal) cells. (AID 2060322);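 also: cells pre-induced with doxycycline then dosed without doxycycline; series mostly up to about 56 µM; 0% = DMSO vehicle and 100% = reference activator; nearly all actives have a fitted effect of over 75% in size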
# experimentalParameters: NCI-H358 eGFP-delta133p53alpha fluorescence, 24 h; hits give high values
Results filed as inconclusive are left out.
measuredEndpoint: activation (%)
Reply with just the number (in %).

## Task Give its activation value. Item: NC[C@H]1O[C@@H](n2cnc3c(N)ncnc32)[C@H](O)[C@@H]1O
## Result 4.39

## Task Would you kindly repeat that for OC[C@H]1O[C@@H](OCCc2ccccc2)[C@H](O)[C@@H](O)[C@@H]1O ?
## Result -2.29

## Task Would you kindly repeat that for C[C@H]1CC[C@@]2(OC1)O[C@H]1CC3C4CC[C@H]5C[C@@H](O)CC[C@]5(C)C4CC(=O)[C@]3(C)[C@H]1[C@@H]2C (stereo not given in full) ?
## Result 25.9

## Task Would you kindly repeat that for CCOC(=O)N1CCC(N2CCC[C@@H](NC(=O)c3ccccc3C)C2)CC1 ?
## Result -2.86

## Task Would you kindly repeat that for O=C1COc2nccc(-c3ccccc3F)c2CN1Cc1cc(C(F)(F)F)cc(C(F)(F)F)c1 ?
## Result -4.77
